# System: A2780 human ovarian cancer cells
# assay: MTT assay, inhibition of cell growth, A2780
# Type: cell-based
# condition label: as described in Example 6 (Table 3), read-out: Average IC50 A2780
endpoint name: IC50 (nM)

* COc1ccc(C=CC(=O)OCCCCc2ccccc2)cc1.COc1ccc(C=CC(=O)OCCCCc2ccccc2)cc1.[Cl-].[Ru+2].[Ru+2].[S-]c1ccccc1.[S-]c1ccccc1.[S-]c1ccccc1 [[12]Cl] | 420
* Cc1c(C)c(C)c(C)c(C)c1C.Cc1c(C)c(C)c(C)c(C)c1C.[Cl-].[Ru+2].[Ru+2].[S-]c1ccccc1.[S-]c1ccccc1.[S-]c1ccccc1 [[19]Cl, [(C6Me6)2Ru2(SPh)3]^+] | 433
* CC1=C(C)C(C)C(C)=C1C.CC1=C(C)C(C)C(C)=C1C.Cc1ccc(S)cc1.Cc1ccc(S)cc1.Cc1ccc(S)cc1.[Ru+3].[Ru+3] [PA2, [(CsMe5)2Ru2(p-SC6H4Me)3]^+, reference compound] | 1930

I: CC1=C(C)C(C)C(C)=C1C.CC1=C(C)C(C)C(C)=C1C.Sc1ccccc1.Sc1ccccc1.Sc1ccccc1.[Ru+3].[Ru+3] [PA1, [(CsMes)2Ru2(p-SC6H5)3]^+, reference compound]
II: COc1ccc(C=CC(=O)OCCc2ccccc2)cc1.COc1ccc(C=CC(=O)OCCc2ccccc2)cc1.[Cl-].[Ru+2].[Ru+2].[S-]c1ccccc1.[S-]c1ccccc1.[S-]c1ccccc1 [[11]Cl]
Form: Entry with minimum IC50 (choose one): I / II Respond with the label that goes with your answer.
II
